system: Moraxella catarrhalis; assay: Antimicrobial activity against erythromycin-susceptible Moraxella catarrhalis 11B366 incubated for 20 hrs by two-fold microbroth dilution method; assay type: functional; settings: 11B366, 20 h
log10 of MIC values for the molecules below.
Heads up: the numbers are on a log10 scale; they represent MIC in µg/mL.

Worked examples, 5 molecules total:
CC[C@H]1OC(=O)[C@H](C)[C@@H](O[C@H]2C[C@@](C)(OC)[C@@H](O)[C@H](C)O2)[C@H](C)[C@@H](O[C@@H]2O[C@H](C)C[C@H](N(C)C)[C@H]2O)[C@](C)(OC)C[C@@H](C)C(=O)[C@H](C)[C@@H](O)[C@]1(C)O
-0.90
CC[C@H]1OC(=O)[C@H](C)[C@@H](OC(=O)Cc2ccccn2)[C@H](C)[C@@H](O[C@@H]2O[C@H](C)C[C@H](N(C)C)[C@H]2O)[C@](C)(OC)C[C@@H](C)/C(=N\OCC#Cc2cncc(C(N)=O)c2)[C@H](C)[C@H]2OC(=O)O[C@@]21C
0.00
CC[C@H]1OC(=O)[C@H](C)C(=O)[C@H](C)[C@@H](O[C@@H]2O[C@H](C)C[C@H](N(C)C)[C@H]2O)[C@](C)(OC)C[C@@H](C)C(=O)[C@H](C)[C@H]2N(CCCCn3cnc(-c4cccnc4)c3)C(=O)O[C@]12C
-0.60
CC[C@H]1OC(=O)[C@H](C)[C@@H](OC(=O)Cc2ccccn2)[C@H](C)[C@@H](O[C@@H]2O[C@H](C)C[C@H](N(C)C)[C@H]2O)[C@](C)(OC)C[C@@H](C)/C(=N\OCC#Cc2ccc3nccnc3c2)[C@H](C)[C@H]2OC(=O)O[C@@]21C
0.30
CC[C@H]1OC(=O)[C@H](C)C(=O)[C@H](C)[C@@H](O[C@@H]2O[C@H](C)C[C@H](N(C)C)[C@H]2O)[C@](C)(OC)C[C@@H](C)/C(=N\OC/C=C/c2cnc3ccccc3c2)[C@H](C)[C@H]2OC(=O)O[C@@]21C
0.30

### Prompt Given the molecule `CC[C@H]1OC(=O)[C@H](C)[C@@H](OC(=O)Cc2ccccn2)[C@H](C)[C@@H](O[C@@H]2O[C@H](C)C[C@H](N(C)C)[C@H]2O)[C@](C)(OC)C[C@@H](C)/C(=N\OCC#Cc2cncc(N)c2)[C@H](C)[C@H]2OC(=O)O[C@@]21C` , write its reported log10 of MIC.
### Response 0.00

### Prompt Given the molecule `CC[C@H]1OC(=O)[C@H](C)[C@@H](OC(=O)Cc2ccccn2)[C@H](C)[C@@H](O[C@@H]2O[C@H](C)C[C@H](N(C)C)[C@H]2O)[C@](C)(OC)C[C@@H](C)/C(=N\OCC#Cc2ccc(-n3ccnc3)cc2)[C@H](C)[C@H]2OC(=O)O[C@@]21C` , write its reported log10 of MIC.
### Response 0.60

### Prompt Given the molecule `CC[C@H]1OC(=O)[C@H](C)[C@@H](OC(=O)Cc2ccccn2)[C@H](C)[C@@H](O[C@@H]2O[C@H](C)C[C@H](N(C)C)[C@H]2O)[C@](C)(OC)C[C@@H](C)/C(=N\OCC#Cc2cnc(N)nc2)[C@H](C)[C@H]2OC(=O)O[C@@]21C` , write its reported log10 of MIC.
### Response 0.30

### Prompt Given the molecule `CC[C@H]1OC(=O)[C@H](C)[C@@H](OC(=O)Cc2ccccn2)[C@H](C)[C@@H](O[C@@H]2O[C@H](C)C[C@H](N(C)C)[C@H]2O)[C@](C)(OC)C[C@@H](C)/C(=N\OCC#Cc2cccnc2)[C@H](C)[C@H]2OC(=O)O[C@@]21C` , write its reported log10 of MIC.
### Response 0.30

The reported numbers originate from ChEMBL document CHEMBL3611985.
